Data provenance is PubChem BioAssay (NCI).

System: LOX IMVI melanoma
Test: NCI tumour cell line growth inhibition, 48 h
Could you please report measured TGI for the items listed next?
Numbers only, in µM.

// for each compound below, give its TGI
1. CCC[CH2][Sn]([CH2]CCC)([CH2]CCC)[O]c1ccc(Cl)cc1Cl
2. [Cl-].[O-]/N=C(\c1ccccc1)c1ccccn1.[O-]/N=C(\c1ccccc1)c1ccccn1.[O-]/N=C(\c1ccccc1)c1ccccn1.[Sm+3]
3. C#Cc1cccc(N2C(=O)CCC2=O)c1
4. COc1ccc(C(=O)/C=C/c2ccc(C)cc2)cc1OC

0.253
53.3
32
25.6

###

Tested on: OVCAR-4 ovarian
Assay: NCI tumour cell line growth inhibition, 48 h; in the data active = GI50 below about 0.43 µM; inactive = the rest
Please state which outcome applies, choosing from active, inactive

Example results:
{"columns": ["MOLECULE", "CLASS LABEL"],
 "data": [
  ["COc1cc(-c2cc3ncccc3c3nc(N)c4cccnc4c23)cc(OC)c1OC", "inactive"],
  ["C#CCOc1cccc(-c2ncnc3cc(NC(=O)CCl)ccc23)c1", "inactive"],
  ["CCOC(=O)c1sc(-c2ccc(OS(=O)(=O)c3ccc(Br)s3)c(C=O)c2)nc1C", "inactive"],
  ["COc1cc(C#Cc2ccc(=O)oc2C#Cc2ccccc2)cc(OC)c1OC", "inactive"]
]}

Dear colleague, could you share the recorded outcome for CCN(Cc1cccc(F)c1)c1ccc(CO)c(Cl)c1 when you have a moment?
active

What do you get for COc1cc(NC(N)=NCCC(C)(C)Oc2ccc(C(F)(F)F)cc2)ncc1C#N ?
inactive

Moving on to the next molecule: Cc1nc(SCC(=O)Nc2nc(-c3ccc(Cl)cc3)cs2)n(Nc2ccccc2)c1C
inactive

Also Cc1nn(-c2nc3ccccc3[nH]2)c(N)c1-c1ccc(Cl)cc1 ?
inactive

Also, O=C1c2ccccc2-c2c1c1c(=O)[nH]c3ccccc3c1n2Cc1ccccc1 please.
inactive

Follow-up entry: CCOC(=O)N1CCN(c2nc(Nc3cc(C)[nH]n3)c3ccccc3n2)CC1
inactive

Can you handle O=C(Nc1cccc(-n2ccc3c(NC(=O)c4ccccc4)nccc32)c1)Nc1cc(C(F)(F)F)cc(C(F)(F)F)c1 next?
inactive

Next record, please: [Cl-].[O-]/N=C(\c1ccccc1)c1ccccn1.[O-]/N=C(\c1ccccc1)c1ccccn1.[O-]/N=C(\c1ccccc1)c1ccccn1.[Sm+3]
inactive

Thanks! And CN[C@H]1C=C[C@@H]2/C=C(C)/C=C/[C@@H](C)[C@H]([C@H](C)[C@H](O)[C@@H](C)NC(C)=O)OC(=O)/C=C/C=C(C)\C=C\[C@]2(C)C1 ?
inactive

Lookup CC[N+](CC)=c1sc2c(s1)C(c1ccc(Cl)cc1)Oc1ccc(Cl)cc1-2 (stereo not drawn)
inactive

CN(C)CCCNC(=O)c1cc(NC(=O)c2cc(NC(=O)CCc3c[nH]c4ccccc34)cn2C)cn1C , same question.
inactive

Then Clc1nc(Cl)c2ncn(Cc3cccc(Cn4cnc5c(Cl)nc(Cl)nc54)c3)c2n1 ?
inactive

Another: Nc1ccc(C2=NN(c3ccccc3)C(c3ccc(Cl)cc3)C2)cc1 (stereo not drawn)
inactive

Here is the next molecule: Cc1ccc(-c2csc(/N=C3\C(=O)Nc4ccccc43)n2)cc1
inactive
